src = patent US20190382738A1

- SYSTEM_UNDER_TEST: T1, B-Raf kinase, P15056
- T1 chain: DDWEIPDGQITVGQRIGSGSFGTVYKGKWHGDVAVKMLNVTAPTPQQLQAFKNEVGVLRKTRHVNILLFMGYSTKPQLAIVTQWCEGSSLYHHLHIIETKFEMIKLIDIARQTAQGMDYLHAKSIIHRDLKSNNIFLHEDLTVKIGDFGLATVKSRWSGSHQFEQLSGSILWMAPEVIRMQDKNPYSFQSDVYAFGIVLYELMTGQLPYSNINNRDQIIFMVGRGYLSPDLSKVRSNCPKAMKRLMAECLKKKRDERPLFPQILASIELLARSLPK
- ASSAY_PROCEDURE: intrinsic fluorescence titration, column head Kd (ITF) (µM)
MEASURED_PROPERTY: pKd
Numbers only, as −log10 of the molar value.

I would be grateful if you could share the reported pKd for LRKTRHVNI (modifications not checked) [6257] .
7.70
